# system.tested: recombinant human ALK enzyme (ALK WT) (Homo sapiens)
# Construct: purchased Carna Biosciences 08-518
# procedure.summary: ALK WT cell free enzymatic assay (TR-FRET)
# Assay type: biochemical
# test.settings: 10 point dose response; 1 μM ATP
Counter-ions that a name gives are not always drawn.
molecules and their reported IC50

# molecule, system.tested, IC50
data = [
    ("COCCN1CCN(c2ccc(-c3cnc4[nH]cc(-c5cnn(Cc6cccc(F)c6)c5)c4c3)cn2)CC1 [Example 149]", "recombinant human ALK enzyme (ALK WT) (Homo sapiens)", "< 50 nM"),
    ("c1ccc(CCn2cc(-c3c[nH]c4ncc(-c5ccc(C6CCNCC6)cc5)cc34)cn2)cc1 [Example 88]", "recombinant human ALK enzyme (ALK WT) (Homo sapiens)", "< 50 nM"),
    ("CNS(=O)(=O)c1cc(-c2cnc3[nH]cc(-c4c(C)nn(Cc5cccc(F)c5)c4C)c3c2)ccc1OC [Example 18]", "recombinant human ALK enzyme (ALK WT) (Homo sapiens)", "50 to 250 nM"),
    ("CCS(=O)(=O)N1CCN(c2ccc(-c3cnc4[nH]cc(-c5cnn(Cc6cccc(F)c6)c5)c4c3)cn2)CC1 [Example 156]", "recombinant human ALK enzyme (ALK WT) (Homo sapiens)", "< 50 nM"),
    ("CC(C)(C)OC(=O)N1CCN(c2cccc(-c3cnc4[nH]cc(-c5cnn(Cc6cc(F)ccc6F)c5)c4c3)c2)CC1 [Example 31]", "recombinant human ALK enzyme (ALK WT) (Homo sapiens)", "> 250 nM"),
    ("CS(=O)(=O)Nc1cccc(-c2cnc3[nH]cc(-c4cnn(Cc5ccc(F)cc5)c4)c3c2)c1 [Example 5]", "recombinant human ALK enzyme (ALK WT) (Homo sapiens)", "50 to 250 nM"),
    ("COc1cc(-c2cnc3[nH]cc(-c4c(C)nn(Cc5cccc(F)c5)c4C)c3c2)ccc1N1CCNCC1 [Example 62, hydrochloride]", "recombinant human ALK enzyme (ALK WT) (Homo sapiens)", "< 50 nM"),
]

---

Consider the following molecules and their measured IC50 readings.
# system.tested: recombinant human ALK enzyme (ALK WT) (Homo sapiens, UniProt Q9UM73)
# Construct: purchased Carna Biosciences 08-518
# Sequence (Q9UM73 1058-1620 limits assumed): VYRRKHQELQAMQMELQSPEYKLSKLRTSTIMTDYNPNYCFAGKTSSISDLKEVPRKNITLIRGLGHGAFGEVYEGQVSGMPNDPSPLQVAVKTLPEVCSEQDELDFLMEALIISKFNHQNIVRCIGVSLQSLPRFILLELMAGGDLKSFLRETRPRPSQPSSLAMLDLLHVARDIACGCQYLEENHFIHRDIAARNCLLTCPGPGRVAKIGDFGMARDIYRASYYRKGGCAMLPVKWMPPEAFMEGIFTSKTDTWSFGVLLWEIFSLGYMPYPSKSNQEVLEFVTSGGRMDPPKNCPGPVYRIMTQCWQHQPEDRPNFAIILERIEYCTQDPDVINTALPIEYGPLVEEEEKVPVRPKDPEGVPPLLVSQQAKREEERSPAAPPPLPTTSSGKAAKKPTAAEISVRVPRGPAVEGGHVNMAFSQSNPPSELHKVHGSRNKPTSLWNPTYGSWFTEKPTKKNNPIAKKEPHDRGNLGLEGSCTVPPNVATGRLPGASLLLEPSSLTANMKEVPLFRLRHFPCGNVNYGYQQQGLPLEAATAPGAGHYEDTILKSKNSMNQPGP
# procedure.summary: ALK WT cell free enzymatic assay (TR-FRET)
# Assay type: biochemical
# test.settings: 10 point dose response; 1 μM ATP
Counter-ions that a name gives are not always drawn.
reported.metric: IC50

# molecule, test.value
measured = [
    ("Cc1nn(Cc2cccc(F)c2)c(C)c1-c1c[nH]c2ncc(-c3ccc(NC4CCNCC4)cc3)cc12", "< 50 nM"),
    ("Fc1ccc(F)c(Cn2cc(-c3c[nH]c4ncc(-c5cccc(N6CCNCC6)c5)cc34)cn2)c1", "< 50 nM"),
    ("CS(=O)(=O)Nc1cc(-c2cnc3[nH]cc(-c4ccn(Cc5cc(F)cc(F)c5)n4)c3c2)ccc1C1CCNCC1", "< 50 nM"),
    ("Fc1cccc(Cn2cc(-c3c[nH]c4ncc(-c5ccc(NC6CCNCC6)cc5)cc34)cn2)c1", "< 50 nM"),
    ("COc1cc(-c2cnc3[nH]cc(-c4cnn(Cc5cccc(F)c5)c4)c3c2)cnc1N", "< 50 nM"),
    ("C[C@H](O)CN1CCN(c2ccc(-c3cnc4[nH]cc(-c5cnn(Cc6cccc(F)c6)c5)c4c3)cn2)CC1", "< 50 nM"),
    ("NC(=O)CN1CCN(c2ccc(-c3cnc4[nH]cc(-c5cnn(Cc6cc(F)cc(F)c6)c5)c4c3)cn2)CC1", "< 50 nM"),
    ("C[C@@H](O)CN1CCN(c2ncc(-c3cnc4[nH]cc(-c5cnn(Cc6cccc(F)c6)c5)c4c3)cc2F)CC1", "< 50 nM"),
    ("Cc1nn(Cc2cccc(C#N)c2)c(C)c1-c1c[nH]c2ncc(-c3ccc(N4CCNCC4)cc3)cc12 [Example 48, hydrochloride]", "50 to 250 nM"),
    ("Cc1nn(Cc2cccc(F)c2)c(C)c1-c1c[nH]c2ncc(-c3ccc(N4CCN(C)CC4)cc3)cc12", "< 50 nM"),
    ("COc1cc(-c2cnc3[nH]cc(-c4c(C)nn(Cc5cccc(F)c5)c4C)c3c2)cnc1N", "< 50 nM"),
    ("Cc1nn(Cc2cccc(F)c2)c(C)c1-c1c[nH]c2ncc(-c3cccc(NC4CCNCC4)c3)cc12", "< 50 nM"),
    ("COc1ccc(-c2cnc3[nH]cc(-c4cnn(CCc5ccccc5F)c4)c3c2)cc1NS(C)(=O)=O", "50 to 250 nM"),
    ("CS(=O)(=O)Nc1cc(-c2cnc3[nH]cc(-c4ccn(Cc5cc(F)cc(F)c5)n4)c3c2)ccc1N1CCNCC1", "< 50 nM"),
    ("Cc1nn(Cc2cccc(F)c2)c(C)c1-c1c[nH]c2ncc(-c3cccc(OC4CCNCC4)c3)cc12", "< 50 nM"),
    ("CS(=O)(=O)Nc1cccc(-c2cnc3[nH]cc(-c4cnn(Cc5cc(F)cc(F)c5)c4)c3c2)c1", "< 50 nM"),
    ("CN1CCN(c2ncc(-c3cnc4[nH]cc(-c5cnn(Cc6cccc(F)c6)c5)c4c3)cc2F)CC1", "< 50 nM"),
    ("O=C(CC1CC1)N1CCN(c2ccc(-c3cnc4[nH]cc(-c5cnn(Cc6cccc(F)c6)c5)c4c3)cn2)CC1", "50 to 250 nM"),
    ("Cc1nn(Cc2cccc(F)c2)c(C)c1-c1c[nH]c2ncc(-c3ccc(OCCO)c(NS(C)(=O)=O)c3)cc12", "< 50 nM"),
    ("OCCN1CCN(c2ccc(-c3cnc4[nH]cc(-c5cnn(Cc6cccc(F)c6)c5)c4c3)cc2)CC1", "< 50 nM"),
    ("O=C(CC1CC1)N1CCN(c2ccc(-c3cnc4[nH]cc(-c5cnn(Cc6cccc(F)c6)c5)c4c3)cc2)CC1", "> 250 nM"),
    ("COc1ccc(-c2cnc3[nH]cc(-c4cnn(Cc5cc(F)cc(F)c5)c4)c3c2)cc1NS(C)(=O)=O", "< 50 nM"),
    ("Cc1nn(Cc2cccc(F)c2)c(C)c1-c1c[nH]c2ncc(-c3ccc(OCCCN(C)C)c(NS(C)(=O)=O)c3)cc12", "< 50 nM"),
    ("CS(=O)(=O)Nc1cccc(-c2cnc3[nH]cc(-c4cnn(Cc5cc(F)ccc5F)c4)c3c2)c1", "50 to 250 nM"),
    ("CS(=O)(=O)Nc1cccc(-c2cnc3[nH]cc(-c4cnn(Cc5cccc(F)c5)c4)c3c2)c1", "< 50 nM"),
    ("Cc1cccc(Cn2cc(-c3c[nH]c4ncc(-c5ccc(N6CCN(C[C@H](C)O)CC6)cc5)cc34)cn2)c1", "< 50 nM"),
    ("Cc1nn(Cc2cccc(F)c2)c(C)c1-c1c[nH]c2ncc(-c3cccc(CC4CCNCC4)c3)cc12", "< 50 nM"),
    ("Cc1nn(Cc2cccc(F)c2)c(C)c1-c1c[nH]c2ncc(-c3cccc(N4CCN(CCO)CC4)c3)cc12", "< 50 nM"),
    ("C[C@@H](O)CN1CCN(c2ccc(-c3cnc4[nH]cc(-c5cnn(Cc6cccc(F)c6)c5)c4c3)cc2)CC1", "< 50 nM"),
]

---

# system.tested: recombinant human ALK enzyme (ALK WT) (Homo sapiens, UniProt Q9UM73)
# Construct: purchased Carna Biosciences 08-518
# procedure.summary: ALK WT cell free enzymatic assay (TR-FRET)
# Type: biochemical
# test.settings: compound at 100 nM; 30 min pre-incubation; 1 μM ATP
Counter-ions that a name gives are not always drawn.
reported.metric: inhibition at 0.1 µM (%)

# compound, system.tested, reported.metric, test.value
rows = [
    ("C[C@H](O)CN1CCN(c2ccc(-c3cnc4[nH]cc(-c5cnn(Cc6cccc(O)c6)c5)c4c3)cn2)CC1", "recombinant human ALK enzyme (ALK WT) (Homo sapiens, UniProt Q9UM73)", "inhibition at 0.1 µM", 92),
    ("CN1CCN(c2ccc(-c3cnc4[nH]cc(-c5cnn(CCc6ccccc6)c5)c4c3)cc2)CC1", "recombinant human ALK enzyme (ALK WT) (Homo sapiens, UniProt Q9UM73)", "inhibition at 0.1 µM", 76),
    ("COc1cccc(Cn2nc(C)c(-c3c[nH]c4ncc(-c5ccc(N6CCNCC6)cc5)cc34)c2C)c1 [Example 46, hydrochloride]", "recombinant human ALK enzyme (ALK WT) (Homo sapiens, UniProt Q9UM73)", "inhibition at 0.1 µM", 80),
    ("COc1ccc(-c2cc3c(-c4c(C)nn(Cc5cc(F)cc(F)c5)c4C)c[nH]c3nc2C2CC2)cc1NS(C)(=O)=O", "recombinant human ALK enzyme (ALK WT) (Homo sapiens, UniProt Q9UM73)", "inhibition at 0.1 µM", 9),
    ("OCCN1CCN(c2ccc(-c3cnc4[nH]cc(-c5cnn(Cc6cccc(F)c6)c5)c4c3)cc2)CC1", "recombinant human ALK enzyme (ALK WT) (Homo sapiens, UniProt Q9UM73)", "inhibition at 0.1 µM", 95),
    ("Cc1nn(Cc2cccc(F)c2)c(C)c1-c1c[nH]c2ncc(-c3ccc(N4CCOCC4)cc3)cc12", "recombinant human ALK enzyme (ALK WT) (Homo sapiens, UniProt Q9UM73)", "inhibition at 0.1 µM", 51),
    ("C[C@H](O)CN1CCN(c2ccc(-c3cnc4[nH]cc(-c5cnn(CCc6ccccc6)c5)c4c3)cc2)CC1", "recombinant human ALK enzyme (ALK WT) (Homo sapiens, UniProt Q9UM73)", "inhibition at 0.1 µM", 91),
    ("C[C@H](O)CN1CCCN(c2ccc(-c3cnc4[nH]cc(-c5cnn(Cc6cccc(F)c6)c5)c4c3)cc2)CC1", "recombinant human ALK enzyme (ALK WT) (Homo sapiens, UniProt Q9UM73)", "inhibition at 0.1 µM", 96),
    ("CN1CCN(c2ncc(-c3cnc4[nH]cc(-c5cnn(Cc6cccc(F)c6)c5)c4c3)cc2F)CC1", "recombinant human ALK enzyme (ALK WT) (Homo sapiens, UniProt Q9UM73)", "inhibition at 0.1 µM", 92),
    ("Fc1cc(F)cc(Cn2cc(-c3c[nH]c4ncc(-c5ccc(C6CCNCC6)c(F)c5)cc34)cn2)c1", "recombinant human ALK enzyme (ALK WT) (Homo sapiens, UniProt Q9UM73)", "inhibition at 0.1 µM", 99),
    ("Cc1nn(Cc2cccc(F)c2)c(C)c1-c1c[nH]c2ncc(-c3ccc(N4CCNCC4)cc3)cc12 [Example 40, hydrochloride]", "recombinant human ALK enzyme (ALK WT) (Homo sapiens, UniProt Q9UM73)", "inhibition at 0.1 µM", 94),
    ("CS(=O)(=O)Nc1cc(-c2cnc3[nH]cc(-c4cnn(Cc5cccc(F)c5)c4)c3c2)ccc1N1CCOCC1", "recombinant human ALK enzyme (ALK WT) (Homo sapiens, UniProt Q9UM73)", "inhibition at 0.1 µM", 13),
    ("Cc1nn(Cc2cccc(F)c2)c(C)c1-c1c[nH]c2ncc(-c3ccc(OCCO)c(NS(C)(=O)=O)c3)cc12", "recombinant human ALK enzyme (ALK WT) (Homo sapiens, UniProt Q9UM73)", "inhibition at 0.1 µM", 53),
    ("C[C@H](O)CN1CCN(c2ccc(-c3cnc4[nH]cc(-c5cnn(Cc6ccccc6)c5)c4c3)cn2)CC1", "recombinant human ALK enzyme (ALK WT) (Homo sapiens, UniProt Q9UM73)", "inhibition at 0.1 µM", 94),
]

Data origin, for the record: patent US9353107B2
